# TARGET_DESC: IRAK4 (Homo sapiens, UniProt Q9NWZ3)
# Sequence (Q9NWZ3 1-460): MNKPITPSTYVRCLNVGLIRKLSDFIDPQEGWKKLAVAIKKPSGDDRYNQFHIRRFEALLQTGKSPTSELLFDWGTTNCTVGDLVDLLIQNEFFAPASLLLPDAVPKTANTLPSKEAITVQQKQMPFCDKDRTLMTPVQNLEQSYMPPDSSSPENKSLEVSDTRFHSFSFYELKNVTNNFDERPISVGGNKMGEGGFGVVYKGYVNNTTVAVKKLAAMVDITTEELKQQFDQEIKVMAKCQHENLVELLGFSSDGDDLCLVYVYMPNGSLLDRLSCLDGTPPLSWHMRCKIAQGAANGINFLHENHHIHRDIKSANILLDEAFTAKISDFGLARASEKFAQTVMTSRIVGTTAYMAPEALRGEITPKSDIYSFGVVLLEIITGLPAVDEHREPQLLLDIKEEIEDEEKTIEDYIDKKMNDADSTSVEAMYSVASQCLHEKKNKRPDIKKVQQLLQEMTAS
# EXPERIMENTAL_DETAILS: mRNA display affinity selection against IRAK4, NGS abundance
# Format: binding
# Parameters: acids 1-460; NP_057207.2) was purchased from Carna Biosciences; purchased Carna Biosciences (Kobe, Japan)
# CONDITION: IRAK4 selection pulldown (-); Top100 selection hits, NGS
Property: Library fraction; scope: individual sequences
Just the number, please, no unit attached.

RESIDUE_SEQUENCE	Library fraction
SMQRRVIKWTWA	0.00016
TLLWKRRIYK	0.00132
TQRWKHRLYK	0.00032
SILWKKRVWK	0.009
SMLFKRRMYK	0.00019

Exam item: Tell me Library fraction of TQYWKRRIYN when tested on IRAK4 (Homo sapiens, UniProt Q9NWZ3).
Marked response: 0.00241

Exam item: Please respond with reported Library fraction (system IRAK4 (Homo sapiens, UniProt Q9NWZ3)) for STRWKNRIYR .
Marked response: 0.003

Exam item: Specify Library fraction for RMLWKRRMWH , system IRAK4 (Homo sapiens, UniProt Q9NWZ3).
Marked response: 0.00041

Exam item: Please respond with reported Library fraction (system IRAK4 (Homo sapiens, UniProt Q9NWZ3)) for RTYWKRRCYA .
Marked response: 0.00332

Exam item: With IRAK4 (Homo sapiens, UniProt Q9NWZ3) as the test system, provide measured Library fraction for this sequence: SMKRRFITWHWT
Marked response: 8e-5

Exam item: Identify measured Library fraction obtained with IRAK4 (Homo sapiens, UniProt Q9NWZ3) for SMKRKFITWHWT .
Marked response: 7e-5

Exam item: Jot down Library fraction (IRAK4 (Homo sapiens, UniProt Q9NWZ3)) of RLLWKRRNYQ .
Marked response: 0.00025

Exam item: With IRAK4 (Homo sapiens, UniProt Q9NWZ3) as the test system, provide measured Library fraction for this sequence: AIRWKNRNYK
Marked response: 0.00032

Exam item: Quote IRAK4 (Homo sapiens, UniProt Q9NWZ3) Library fraction for entry TQRWNNRNWC .
Marked response: 0.00014
